Collected normalized growth values appear next to each entry.
# assayExplanation: chemical genetic growth profiling, strain panel (AID 1159580);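 note: tested at 20 µM; growth read once vehicle control cultures reached saturation at 30 °C; 1 = growth at the plate median or of vehicle wells; lower values mean less growth of the strain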
# protocolConditions: S. cerevisiae deletion strains, growth OD, locus YOR083W, strain WHI5 (second series), hits give low values
About 2,000 (36%) of roughly 5,500 compounds were called active. Not shown: some 18% with an inconclusive outcome. The list shows a part of the results.
// no unit string in output, number only

>  <molecule>
N[C@H](C(=O)O)c1cc(O)cc(O)c1

>  <normalized growth>
0.999

$$$$

Consider the molecule shown here: `c1ccc(-c2ccccn2)nc1` What is its recorded normalized growth?
0.972

Consider the molecule shown here: `O=C(Nc1ccccc1)c1cc([N+](=O)[O-])ccc1Cl` What is its recorded normalized growth?
0.958

Consider the molecule shown here: `FC(F)(F)c1cc(CO[C@H]2CCCN[C@H]2c2ccccc2)cc(C(F)(F)F)c1` What is its recorded normalized growth?
0.913

Consider the molecule shown here: `NC(N)=NC(=O)c1nc(Cl)c(N2CCCCCC2)nc1N` What is its recorded normalized growth?
0.979

Consider the molecule shown here: `CC1=NN=C(c2ccc(N)cc2)c2cc3c(cc2C1)OCO3` What is its recorded normalized growth?
0.936

Consider the molecule shown here: `N#C/C(=C\c1ccc(O)c(O)c1)C(=O)NCCCc1ccccc1` What is its recorded normalized growth?
1.01

Consider the molecule shown here: `NC(=NCc1ccccc1)NC(=O)c1nc(Cl)c(N)nc1N` What is its recorded normalized growth?
0.965

Consider the molecule shown here: `Cc1ccc(S(=O)(=O)N[C@@H](Cc2ccccc2)C(=O)CCl)cc1` What is its recorded normalized growth?
0.957

###

# assayExplanation: chemical genetic growth profiling, strain panel (AID 1159580);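 note: tested at 20 µM; growth read once vehicle control cultures reached saturation at 30 °C; 1 = growth at the plate median or of vehicle wells; lower values mean less growth of the strain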
# protocolConditions: S. cerevisiae deletion strains, growth OD, locus YJL095W, strain BCK1, hits give low values
Screen size: about 5,500 compounds; about 2,000 (36%) were called active. Roughly 18% stayed inconclusive and do not appear here. This is one part of the list.
Hi! Could you tag entries with normalized growth below 0.9 as rule met, and those at or above as rule not met? Much appreciated.

>  <molecule>
CC(C)(C)NC(=S)N/N=C\c1ccccc1O

>  <className>
rule not met

$$$$
>  <molecule>
O=C1Nc2ccccc2/C1=C\c1ccc(Cl)cc1

>  <className>
rule met

$$$$
>  <molecule>
COc1ccc(-c2cc(=O)c3c(O)cc(O[C@H]4O[C@H](CO[C@@H]5O[C@@H](C)[C@H](O)[C@@H](O)[C@H]5O)[C@@H](O)[C@H](O)[C@H]4O)cc3o2)cc1

>  <className>
rule not met

$$$$
>  <molecule>
O=C(O)Cc1cnc[nH]1

>  <className>
rule not met

$$$$
>  <molecule>
CC(NC(=S)N/N=C\c1ccccc1O)c1ccccc1 (centres undefined)

>  <className>
rule met

$$$$

Consider CC(CC(O)C1OC1(C)C)[C@@H]1CCC2(C)C3=CCC4C(C)(C)C(=O)CCC4(C)C3CC[C@@]12C (some centres undefined) . Does its normalized growth lie strictly below 0.9?
rule not met

Consider `COc1cc(O)c2c(=O)c(O)c(-c3ccc(O)c(O)c3)oc2c1` . Does its normalized growth lie strictly below 0.9?
rule met

Consider `CNC(=O)Oc1cccc2c1OC(C)(C)O2` . Does its normalized growth lie strictly below 0.9?
rule not met

Consider C[C@H]1O[C@H](OC2[C@@H](O)[C@@H](O)C(O)[C@H](O)[C@H]2O)[C@@H](N)C[C@@H]1N=C(N)C(=O)O (some centres undefined) . Does its normalized growth lie strictly below 0.9?
rule not met
